Recorded ileum contraction inhibiting rate by entry
- System: SRS-A
- test-protocol: Anti-SRS-A effect on guinea pig's ileum (Magnus method)
- test-context: 10^-6 g/ml
- Procedure: The anti-SRS-A effect of the compounds according to the present invention on guinea pig's ileum was measured by Magnus method. […] One minute thereafter, the ileum contraction inhibiting rate (%) was measured with use of 1 ml of 80% ethanol solution of SRS-A (150 mg/ml).
Counter-ions that a name gives are not always drawn.
Quick note: give the figure in %, leave out the unit.

| compound | quantitative-result |
| --- | --- |
| Cc1ccc(C(=O)C(C)CN2CCCCC2)cc1C.Cl (centres unmarked) | 12.3 |
| Cc1ccc(C(=O)C(C)CN2CCOCC2)cc1.Cl (centres unmarked) | 8.3 |
| CCOc1ccc(C(=O)C(C)CN2CCCCC2)cc1.Cl (centres unmarked) | 6.7 |
| Cc1ccc(C(=O)C(C)CN2CCCC2)cc1.Cl (centres unmarked) | 1.3 |

Field: next compound
Bench note: what ileum contraction inhibiting rate did CC(CN1CCOCC1)C(=O)c1ccc2ccccc2c1 (centres unmarked) [Example 4, hydrochloride] show?
13.0

###

Catalogue of compounds with associated Histamine release rate
- System: Peritoneal cavity cells
- test-protocol: Inhibitory effect on histamine release from sensitized peritoneal cavity cells
- Format: cell-based, rat (Wistar-strain)
- test-context: 0.01 mM
Where a name gives a salt, the structure may show the parent alone.
The response must be a number in % with no trailing unit.

Examples from the recorded data:
| compound | measurement-name | unit-abbrev | quantitative-result |
| --- | --- | --- | --- |
| Cc1ccc(C(=O)C(C)CN2CCCCC2)cc1 (centres unmarked) [2,4'-dimethyl-3-piperidinopropiophenone, reference compound] | Histamine release rate | % | 50.8 |
| CC(CN1CCOCC1)C(=O)c1ccc2ccccc2c1 (centres unmarked) [Example 4, hydrochloride] | Histamine release rate | % | 44.2 |
| CC(CN1CCCCC1)C(=O)c1ccc2ccccc2c1 (centres unmarked) [Example 2, hydrochloride] | Histamine release rate | % | 38.6 |
| O=C(O)c1cc(=O)c2c(OCC(O)COc3cccc4oc(C(=O)O)cc(=O)c34)cccc2o1 [DSCG, disodium chromoglicate, reference compound] | Histamine release rate | % | 36.8 |

Query compound follows.
Entry under review: Cc1ccc(C(=O)C(C)CN2CCCCC2)cc1C.Cl (centres unmarked) [Example 5] . Reported Histamine release rate?
42.9

###

- Tested on: Peritoneal cavity cells
- test-protocol: Inhibitory effect on histamine release from sensitized peritoneal cavity cells
- Type: cell-based, rat (Wistar-strain)
- test-context: Rattus norvegicus; 0.05 mM; average ± S.E. of 3 or 4 experiments; read-out: Inhibitory effect on histamine release
Where a name gives a salt, the structure may show the parent alone.
Let's look at some molecules and their measured inhibition at 50 µM.
The reply should contain only the number, in %.

| molecule | quantitative-result |
| --- | --- |
| CCC(CN1CCCCC1)C(=O)c1ccc2ccccc2c1 (centres unmarked) [Example 32, hydrochloride] | 27.2 |
| O=C(O)c1cc(=O)c2c(OCC(O)COc3cccc4oc(C(=O)O)cc(=O)c34)cccc2o1 [DSCG, disodium chromoglicate, reference compound] | 29 |
| Cc1ccc(C(=O)CCN2CCCCC2)cc1C [Example 30, hydrochloride] | 19.4 |
| CC(CN1CCC(Cc2ccccc2)CC1)C(=O)c1ccc2ccccc2c1 (centres unmarked) [Example 29, hydrochloride] | 61 |
| CCCc1ccc(C(=O)C(C)CN2CCCCC2)cc1 (centres unmarked) [Example 36, hydrochloride] | 23.6 |

Return reported inhibition at 50 µM; argument: CCc1ccc(C(=O)C(C)CN2CCCCC2)cc1CC (centres unmarked) [Example 34, hydrochloride]
29.1

Look up inhibition at 50 µM for this molecule: CC(CN1CCCCC1)C(=O)c1ccc2c(c1)CCC2 (centres unmarked) [Example 33, hydrochloride]
14.4

Which inhibition at 50 µM is reported for this molecule? CCCCCCc1ccc(C(=O)C(C)CN2CCCCC2)cc1 (centres unmarked) [Example 22, hydrochloride]
82

###

- test-protocol: Acute toxicity in mice (LD50, Litchfield-Wilcoxon)
- test-context: mouse, in vivo, ip; intraperitoneal, ICR male mice
Where a name gives a salt, the structure may show the parent alone.
// reported LD50 per item
Report the value in mg/kg with no unit label.

Some solved cases for reference:
| molecule | LD50 (mg/kg) |
| --- | --- |
| CC(CN1CCCCC1)C(=O)c1ccc2ccccc2c1 (stereo not drawn) [Example 2, hydrochloride] | 120 |
| Cc1ccc(C(=O)C(C)CN2CCCCC2)cc1C.Cl (stereo not drawn) | 117 |

We now examine a further molecule.
Any idea what its LD50 is? The molecule is CC(CN1CCOCC1)C(=O)c1ccc2ccccc2c1 (stereo not drawn) [Example 4, hydrochloride]
190

###

- Test system: Peritoneal cavity cells
- test-protocol: Inhibitory effect on histamine release from sensitized peritoneal cavity cells
- Format: cell-based, rat (Wistar-strain)
- test-context: Rattus norvegicus; 0.01 mM
Where a name gives a salt, the structure may show the parent alone.
Threshold rule: inhibition at 10 µM greater than or equal to 10% is 1; below that, 0.

| compound | label |
| --- | --- |
| O=C(O)c1cc(=O)c2c(OCC(O)COc3cccc4oc(C(=O)O)cc(=O)c34)cccc2o1 [DSCG, disodium chromoglicate, reference compound] | 1 |
| CC(CN1CCOCC1)C(=O)c1ccc2ccccc2c1 (centres unmarked) [Example 4, hydrochloride] | 0 |
| CC(CN1CCCCC1)C(=O)c1ccc2ccccc2c1 (centres unmarked) [Example 2, hydrochloride] | 1 |
| Cc1ccc(C(=O)C(C)CN2CCCCC2)cc1C.Cl (centres unmarked) [Example 5, hydrochloride] | 1 |

From here, focus on the item given below.
Decide: inhibition at 10 µM of Cc1ccc(C(=O)C(C)CN2CCCCC2)cc1 (centres unmarked) [2,4'-dimethyl-3-piperidinopropiophenone, reference compound] >= 10%?
0

###

The entries below are paired with their reported inhibition at 50 µM.
- Test system: Peritoneal cavity cells
- test-protocol: Inhibitory effect on histamine release from sensitized peritoneal cavity cells
- Assay type: cell-based, rat (Wistar-strain)
- test-context: Rattus norvegicus; 0.05 mM; average ± S.E. of 3 or 4 experiments; read-out: Inhibitory effect on histamine release
Structures can show the parent of a compound that is named as a salt.
Report only the number, with the unit % understood.

| compound | unit-abbrev | quantitative-result |
| --- | --- | --- |
| CC1CCCN(CC(C)C(=O)c2ccc3ccccc3c2)C1 (stereo not drawn) [Example 10, hydrochloride] | % | 18 |
| CC(CN1CCCCC1C)C(=O)c1ccc2ccccc2c1 (stereo not drawn) [Example 28, hydrochloride] | % | 18.5 |

Next up:
Suppose we examine the compound CC1CCN(CC(C)C(=O)c2ccc3ccccc3c2)CC1 (stereo not drawn) [Example 23, hydrochloride] ; what inhibition at 50 µM value has been reported?
21.4
